Tested on: Saccharomyces cerevisiae
Assay: protein stability index of tFT-peptide fusion (C-terminal peptide) (PSI (0-1 scale)); higher = more stable (slower turnover)
Conditions: genetic background: das1 deletion; temperature: 30 C
Where protein stability index equals or exceeds 0.7, the correct label is True; where it does not, the label is False.

1) TVFASNSFGVYV [OST5 C-terminal 12 aa]; False

Request: Tell me whether protein stability index is at least 0.7 here: DATSTLSSQPLD [MSP1 C-terminal 12 aa]
Response: True

====

System: Saccharomyces cerevisiae
Experiment: protein stability index of tFT-peptide fusion (C-terminal peptide) (PSI (0-1 scale)); higher = more stable (slower turnover)
Conditions: genetic background: wild type; temperature: 30 C
reportedEndpoint: protein stability index
The reply should be a number, written without any unit.

# example entries with known answers
1) SVRLVGHGARDR; 0.699
2) DILACAPCRRGP; 0.704
3) SPPPNSLPPPPP; 0.718
4) CPRLDVSSGFSW; 0.694

Here is another sequence to look at.
Request: Give its protein stability index value. Item: HAKVFLMGCSYV
Response: 0.692

====

System: Saccharomyces cerevisiae
Test: protein stability index of tFT-peptide fusion (C-terminal peptide) (PSI (0-1 scale)); higher = more stable (slower turnover)
Settings: genetic background: wild type; temperature: 37 C
reportedEndpoint: protein stability index
The reply should be a number, written without any unit.

# example entries with known answers
1) LLVVGPVRLVVH; 0.321
2) GAWLAVCVVREG; 0.553
3) DPPRPIMRIHMI; 0.171

Request: Give its protein stability index value. Item: IVVVVRLSPILG
Response: 0.401

Request: Give its protein stability index value. Item: GCVTFVLISFCA
Response: 0.386

Request: Give its protein stability index value. Item: FFPFHPHVLRLL
Response: 0.324

====

# reported protein stability index; entries follow
Test system: Saccharomyces cerevisiae
Experiment: protein stability index of tFT-peptide fusion in deletion strain of DAS1 (PSI (0-1 scale)); higher = more stable (slower turnover)
The reply should be a number, written without any unit.

# example entries with known answers
1) ARWRVILWRGAS; 0.627
2) LKILKQKMNHQN; 0.68
3) FSMRWTFAYWVN; 0.39
4) LKILRQKMNSQN; 0.672
5) CTSCVYKFRTNN; 0.675

Request: Give its protein stability index value. Item: LVVYLSCVACYN
Response: 0.0338

Request: Give its protein stability index value. Item: CTSCGYPFRTNN
Response: 0.723

Request: Give its protein stability index value. Item: ARWRVGHWRGAS
Response: 0.703

Request: Give its protein stability index value. Item: FSRRWTFRYWVN
Response: 0.636

Request: Give its protein stability index value. Item: LKILRWKMNHQN
Response: 0.658

Request: Give its protein stability index value. Item: VLGAVGGWRLVG
Response: 0.673

Request: Give its protein stability index value. Item: CTSCGYKARTNN
Response: 0.686

Request: Give its protein stability index value. Item: PSLAASFTRVVG
Response: 0.648

Request: Give its protein stability index value. Item: PDKRNHLIKLLQ
Response: 0.605

Request: Give its protein stability index value. Item: ARQRVGLWRGAS
Response: 0.694

Request: Give its protein stability index value. Item: ARWRVGLWRGAL
Response: 0.682

src = the supplement of paper PMC10724198
